# fraction ligated listing for each entry below
tested on: F1*sub RNA substrate (template-directed ligation); assay: fraction ligated after 30 min (ligated reads / total reads); higher = more ligase activity; sequences stand for … in GAGACCGCAACTGAAAAGTTGT…AGTTCTGCACGTAGAAGCAAAAGGC; details: 42 °C
Just the number, please.

Example sequences with recorded fraction ligated:
TATACTTGTCGTAAGAACTTTGGAGGGTTGA [3d907]: 0.032
TTCACTTGTCGTAAGACACTTGGTGGGTTGA [3d486]: 0.00989
TATACTTGTCGTAAGAACTTTGGATGGGTTGA [2d80]: 0.786
TATCACTTGCGTAAACACTTGGATGGGTTGA [3d1642]: 0.802
ATCATTGTCGTAAGACACTTTGGATGGTTGA [3d102]: 0.482
TTCACTTTCGTAAGACACTTGGATGGGTTGA [3d364]: 0.13
TATCATTGCGTAAGACACTTTGGATGGTTGA [3d1169]: 0.0894
TATCACTTGTCGTAGACATTTGGATGGGTTG [3d2034]: 0.815

Please fill in: fraction ligated reported for TATCACTTGTCTAAGACTTTGGATGGGTTGA [3d1846] = 0.786

====

test system: F1*sub RNA substrate (template-directed ligation); test: fraction ligated after 30 min (ligated reads / total reads); higher = more ligase activity; sequences stand for … in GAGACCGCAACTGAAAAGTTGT…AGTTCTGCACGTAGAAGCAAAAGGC; settings: 42 °C
Measured fraction ligated, listed per entry.
API doc: respond with a numeric literal and nothing else, no unit.

TATCATTGTGTAAGACACTTTGGATGGGTTGA [2d112]: 0.824
TATCCTTGTCTAAGACACTTTGGATGGGTTGA [2d94]: 0.798
TACACTTGCGAAGACACTTTGGATGGGTTGA [3d603]: 0.157
TATCACTTTCGTAAGAACTTGGATGGGTTGA [3d1540]: 0.829
TTCACTTGTCGTAGACACTTTGATGGGTTGA [3d436]: 0.258

// fraction ligated value for TATCACTTCGAAGACACTTTGGATGGGTTGA [3d1313] : 0.803

So, TATCACTTGTCGTAAACATTTGGATGGGTTGA [2d236] ? Its fraction ligated was 0.83

What the record says about TACACTTGTGTAAGACACTTTGGATGGGTTA [3d630] : fraction ligated is 0.0333

fraction ligated measured on TATCACTGTCGTAAGACCTTTGGATGGGTTG [3d1432] = 0.835

Value of measured fraction ligated for the entry TATCCTTGTCGTAAGCACTTTGGTGGGTTGA [3d1070] : 0.0868

====

test system: F1*sub RNA substrate (template-directed ligation); experiment: fraction ligated after 30 min (ligated reads / total reads); higher = more ligase activity; sequences stand for … in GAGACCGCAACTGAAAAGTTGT…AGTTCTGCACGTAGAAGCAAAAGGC; details: 42 °C
We begin with a simple list: items and their reported fraction ligated.
Answer with a number only.

TATCACTTGCGAAACACTTTGGATGGGTTGA [3d1614]: 0.819
TATCACTTGTCGAGAACTTTGGATGGGTTGA [3d1905]: 0.819
TATCACTTGTCGTAGACCTTTGGATGGGTTGA [2d225]: 0.814

--- query ---
For record TATACTTGTCGTAGCACTTTGGATGGGTTGA [3d872] the listed fraction ligated is 0.787
